Just for reference, ChEMBL document CHEMBL4715780 is where these values come from.

Test system: Salmonella typhimurium
Test method notes: Antibacterial activity against Salmonella enterica ATCC 14028 assessed as concentration required to inhibit visible growth by CLSI protocol based serial microdilution method
Format: functional, Salmonella enterica subsp. enterica serovar Typhimurium
I'd appreciate it if you could supply MBC values for the items below.
Write the answer as a number in µg/mL, unit excluded.

Task: Given the molecule CCCCCCCCCCCC[N+]12CC[N+](CCNCC[N+]34CC[N+](CCCCCCCCCCCC)(CC3)CC4)(CC1)CC2.[Cl-].[Cl-].[Cl-].[Cl-] , write its reported MBC.
Output: 3.1

Task: Given the molecule CCCCCCCCCCCC[N+]12CC[N+](Cc3cccc(C[N+]45CC[N+](CCCCCCCCCCCC)(CC4)CC5)c3)(CC1)CC2 , write its reported MBC.
Output: 3.1

Task: Given the molecule CCCCCCCCCCCC[N+]12CC[N+](CCCCC[N+]34CC[N+](CCCCCCCCCCCC)(CC3)CC4)(CC1)CC2 , write its reported MBC.
Output: 3.1

Task: Given the molecule C#CCOCCCCCN(CC[N+]12CC[N+](CCCCCCCCCCCC)(CC1)CC2)CC[N+]12CC[N+](CCCCCCCCCCCC)(CC1)CC2.[Cl-].[Cl-].[Cl-].[Cl-] , write its reported MBC.
Output: 3.1

Task: Given the molecule CCCCCCCCCCCC[N+]12CC[N+](CCCCCCCC[N+]34CC[N+](CCCCCCCCCCCC)(CC3)CC4)(CC1)CC2 , write its reported MBC.
Output: 6.3

Task: Given the molecule CCCCCCCCCCCC[N+]12CC[N+](Cc3ccc(C[N+]45CC[N+](CCCCCCCCCCCC)(CC4)CC5)cc3)(CC1)CC2 , write its reported MBC.
Output: 3.1

Task: Given the molecule CCCCCCCCCCCC[N+]12CC[N+](C/C=C/C[N+]34CC[N+](CCCCCCCCCCCC)(CC3)CC4)(CC1)CC2 , write its reported MBC.
Output: 3.1

* * *

Test method notes: Selectivity index, ratio of CC50 for HEK293T cells assessed as reduction in cell viability measured after 24 hrs by MTT assay to MIC for Pseudomonas aeruginosa ATCC 9027 assessed as bacterial growth inhibition by CLSI protocol based serial microdilution method
Assay type: toxicity
Assay context: human, read-out: Selectivity Index
Class y: selectivity ratio at 24 h at least 4. Class n: selectivity ratio at 24 h below 4.

Task: Tell me whether selectivity ratio at 24 h is at least 4 here: CCCCCCCCCCCC[N+]12CC[N+](CCCCC[N+]34CC[N+](CCCCCCCCCCCC)(CC3)CC4)(CC1)CC2
Output: n

Task: Tell me whether selectivity ratio at 24 h is at least 4 here: CCCCCCCCCCCC[N+]12CC[N+](Cc3ccccc3C[N+]34CC[N+](CCCCCCCCCCCC)(CC3)CC4)(CC1)CC2
Output: n

Task: Tell me whether selectivity ratio at 24 h is at least 4 here: CCCCCCCCCCCC[N+]12CC[N+](Cc3cccc(C[N+]45CC[N+](CCCCCCCCCCCC)(CC4)CC5)c3)(CC1)CC2
Output: y

Task: Tell me whether selectivity ratio at 24 h is at least 4 here: CCCCCCCCCCCC[N+]12CC[N+](CC#CC[N+]34CC[N+](CCCCCCCCCCCC)(CC3)CC4)(CC1)CC2
Output: y

Task: Tell me whether selectivity ratio at 24 h is at least 4 here: CCCCCCCCCCCC[N+]12CC[N+](C/C=C/C[N+]34CC[N+](CCCCCCCCCCCC)(CC3)CC4)(CC1)CC2
Output: y

Task: Tell me whether selectivity ratio at 24 h is at least 4 here: CCCCCCCCCCCC[N+]12CC[N+](Cc3ccc(C[N+]45CC[N+](CCCCCCCCCCCC)(CC4)CC5)cc3)(CC1)CC2
Output: n

Task: Tell me whether selectivity ratio at 24 h is at least 4 here: CCCCCCCCCCCC[N+]12CC[N+](CCCC[N+]34CC[N+](CCCCCCCCCCCC)(CC3)CC4)(CC1)CC2
Output: n
